molecular target: PI3K-γ (p110γ) (Homo sapiens, UniProt P48736); test: PI3K isoforms biochemical assay (HTRF), PI3K-γ; details: read-out: PI3Kγ IC50
Sequence (P48736 whole entry, canonical isoform): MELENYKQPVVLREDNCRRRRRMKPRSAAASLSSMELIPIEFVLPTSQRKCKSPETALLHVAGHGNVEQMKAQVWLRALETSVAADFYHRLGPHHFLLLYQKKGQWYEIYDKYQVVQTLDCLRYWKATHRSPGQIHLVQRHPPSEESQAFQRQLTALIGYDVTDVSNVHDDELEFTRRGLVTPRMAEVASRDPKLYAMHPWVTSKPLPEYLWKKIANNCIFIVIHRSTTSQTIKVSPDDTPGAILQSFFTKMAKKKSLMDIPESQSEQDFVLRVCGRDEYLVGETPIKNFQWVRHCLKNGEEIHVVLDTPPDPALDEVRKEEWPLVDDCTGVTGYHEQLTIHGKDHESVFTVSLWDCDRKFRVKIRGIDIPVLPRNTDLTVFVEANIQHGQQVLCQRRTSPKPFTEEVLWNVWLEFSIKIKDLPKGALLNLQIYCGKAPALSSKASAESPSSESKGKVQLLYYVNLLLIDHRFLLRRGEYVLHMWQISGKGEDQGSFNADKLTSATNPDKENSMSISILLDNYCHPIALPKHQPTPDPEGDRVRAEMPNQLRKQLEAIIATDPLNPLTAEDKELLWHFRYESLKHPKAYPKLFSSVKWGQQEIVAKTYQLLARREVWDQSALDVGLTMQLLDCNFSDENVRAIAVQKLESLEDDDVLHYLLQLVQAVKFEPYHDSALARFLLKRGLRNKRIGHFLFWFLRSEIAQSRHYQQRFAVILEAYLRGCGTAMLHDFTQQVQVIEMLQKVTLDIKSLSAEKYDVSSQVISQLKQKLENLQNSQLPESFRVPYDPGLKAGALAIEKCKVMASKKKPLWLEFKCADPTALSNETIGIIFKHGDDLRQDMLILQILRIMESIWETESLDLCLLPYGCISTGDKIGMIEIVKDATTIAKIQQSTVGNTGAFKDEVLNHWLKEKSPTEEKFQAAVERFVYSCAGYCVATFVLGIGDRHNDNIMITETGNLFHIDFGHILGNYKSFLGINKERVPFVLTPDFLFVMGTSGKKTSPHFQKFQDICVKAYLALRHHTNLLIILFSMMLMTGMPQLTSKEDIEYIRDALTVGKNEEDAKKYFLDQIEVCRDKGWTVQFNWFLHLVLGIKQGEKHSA
metric: IC50 (nM)
Entry rule: numbers only, all in nM.

Problem: Give IC50 only, for CS(=O)(=O)N1CCN(Cc2cc3c(N4CCOCC4)nc(-c4cnc(N)nc4)cn3n2)CC1 , using PI3K-γ (p110γ) (Homo sapiens, UniProt P48736) data.
Solution: 49.1

* * *

target: PI3K-δ (p110δ/p85α) (Homo sapiens); construct: purchased Invitrogen PV 5274; test: PI3K isoforms biochemical assay (HTRF), PI3K-δ; conditions: read-out: PI3Kδ IC50
Sequence (O00329 whole entry, canonical isoform): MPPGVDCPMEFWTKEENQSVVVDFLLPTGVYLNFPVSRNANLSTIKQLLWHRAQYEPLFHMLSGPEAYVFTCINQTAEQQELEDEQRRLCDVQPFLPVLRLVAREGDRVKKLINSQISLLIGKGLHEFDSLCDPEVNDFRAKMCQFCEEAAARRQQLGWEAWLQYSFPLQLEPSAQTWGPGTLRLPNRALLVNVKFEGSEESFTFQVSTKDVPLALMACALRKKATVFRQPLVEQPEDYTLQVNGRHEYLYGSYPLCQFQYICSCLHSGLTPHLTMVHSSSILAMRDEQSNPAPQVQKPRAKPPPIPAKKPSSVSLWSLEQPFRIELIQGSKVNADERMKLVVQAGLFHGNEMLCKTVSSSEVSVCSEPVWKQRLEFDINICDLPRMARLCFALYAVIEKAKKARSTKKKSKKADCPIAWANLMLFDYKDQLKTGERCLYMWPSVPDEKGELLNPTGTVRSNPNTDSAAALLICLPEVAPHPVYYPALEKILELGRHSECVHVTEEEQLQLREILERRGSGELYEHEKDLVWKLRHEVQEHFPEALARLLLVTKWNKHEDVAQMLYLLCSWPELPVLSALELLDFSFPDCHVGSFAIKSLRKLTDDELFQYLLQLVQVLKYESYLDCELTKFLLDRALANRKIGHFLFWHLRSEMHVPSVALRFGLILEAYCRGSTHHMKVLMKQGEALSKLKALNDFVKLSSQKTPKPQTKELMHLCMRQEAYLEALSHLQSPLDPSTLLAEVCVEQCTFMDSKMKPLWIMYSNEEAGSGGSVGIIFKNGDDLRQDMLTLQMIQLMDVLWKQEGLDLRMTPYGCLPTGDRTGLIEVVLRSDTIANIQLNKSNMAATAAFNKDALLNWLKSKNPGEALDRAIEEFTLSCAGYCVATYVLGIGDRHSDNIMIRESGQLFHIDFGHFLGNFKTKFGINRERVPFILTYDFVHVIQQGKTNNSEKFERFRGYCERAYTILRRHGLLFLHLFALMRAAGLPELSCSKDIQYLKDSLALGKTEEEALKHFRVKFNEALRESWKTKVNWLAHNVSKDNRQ
Sequence (P27986 whole entry partner, canonical isoform): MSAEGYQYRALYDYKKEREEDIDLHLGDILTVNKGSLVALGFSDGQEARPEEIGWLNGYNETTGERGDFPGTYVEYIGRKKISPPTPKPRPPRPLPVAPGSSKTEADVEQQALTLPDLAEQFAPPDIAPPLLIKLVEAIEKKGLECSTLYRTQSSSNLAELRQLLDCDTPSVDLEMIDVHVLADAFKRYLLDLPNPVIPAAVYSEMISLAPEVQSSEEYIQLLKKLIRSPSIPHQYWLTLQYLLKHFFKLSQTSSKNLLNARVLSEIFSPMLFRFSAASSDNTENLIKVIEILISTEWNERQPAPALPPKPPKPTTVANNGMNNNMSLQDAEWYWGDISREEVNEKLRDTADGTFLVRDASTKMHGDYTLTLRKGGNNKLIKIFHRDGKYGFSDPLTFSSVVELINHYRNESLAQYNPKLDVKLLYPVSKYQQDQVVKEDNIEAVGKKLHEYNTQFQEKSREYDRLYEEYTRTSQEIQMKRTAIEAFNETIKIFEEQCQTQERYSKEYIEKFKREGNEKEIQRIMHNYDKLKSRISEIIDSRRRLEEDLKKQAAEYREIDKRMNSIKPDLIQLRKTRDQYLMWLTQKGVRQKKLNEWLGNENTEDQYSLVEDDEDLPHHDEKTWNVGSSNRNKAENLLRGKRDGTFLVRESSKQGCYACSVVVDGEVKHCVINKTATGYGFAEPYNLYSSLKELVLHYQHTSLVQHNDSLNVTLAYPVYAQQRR
metric: pIC50
# pIC50 is unitless: minus log10 of the molar concentration; print number only

Problem: Give pIC50 only, for CS(=O)(=O)N1CCN(Cc2cc3c(N4CCOCC4)nc(-c4cnc(N)nc4)cn3n2)CC1 [ETP-47037] , using PI3K-δ (p110δ/p85α) (Homo sapiens) data.
Solution: 8.15

* * *

target: mTOR (FRAP1) (Homo sapiens, UniProt P42345); construct: purchased ThermoFisher PV4753; assay: mTOR biochemical assay (LanthaScreen); details: internal data
Sequence (P42345 1360-2549 limits assumed): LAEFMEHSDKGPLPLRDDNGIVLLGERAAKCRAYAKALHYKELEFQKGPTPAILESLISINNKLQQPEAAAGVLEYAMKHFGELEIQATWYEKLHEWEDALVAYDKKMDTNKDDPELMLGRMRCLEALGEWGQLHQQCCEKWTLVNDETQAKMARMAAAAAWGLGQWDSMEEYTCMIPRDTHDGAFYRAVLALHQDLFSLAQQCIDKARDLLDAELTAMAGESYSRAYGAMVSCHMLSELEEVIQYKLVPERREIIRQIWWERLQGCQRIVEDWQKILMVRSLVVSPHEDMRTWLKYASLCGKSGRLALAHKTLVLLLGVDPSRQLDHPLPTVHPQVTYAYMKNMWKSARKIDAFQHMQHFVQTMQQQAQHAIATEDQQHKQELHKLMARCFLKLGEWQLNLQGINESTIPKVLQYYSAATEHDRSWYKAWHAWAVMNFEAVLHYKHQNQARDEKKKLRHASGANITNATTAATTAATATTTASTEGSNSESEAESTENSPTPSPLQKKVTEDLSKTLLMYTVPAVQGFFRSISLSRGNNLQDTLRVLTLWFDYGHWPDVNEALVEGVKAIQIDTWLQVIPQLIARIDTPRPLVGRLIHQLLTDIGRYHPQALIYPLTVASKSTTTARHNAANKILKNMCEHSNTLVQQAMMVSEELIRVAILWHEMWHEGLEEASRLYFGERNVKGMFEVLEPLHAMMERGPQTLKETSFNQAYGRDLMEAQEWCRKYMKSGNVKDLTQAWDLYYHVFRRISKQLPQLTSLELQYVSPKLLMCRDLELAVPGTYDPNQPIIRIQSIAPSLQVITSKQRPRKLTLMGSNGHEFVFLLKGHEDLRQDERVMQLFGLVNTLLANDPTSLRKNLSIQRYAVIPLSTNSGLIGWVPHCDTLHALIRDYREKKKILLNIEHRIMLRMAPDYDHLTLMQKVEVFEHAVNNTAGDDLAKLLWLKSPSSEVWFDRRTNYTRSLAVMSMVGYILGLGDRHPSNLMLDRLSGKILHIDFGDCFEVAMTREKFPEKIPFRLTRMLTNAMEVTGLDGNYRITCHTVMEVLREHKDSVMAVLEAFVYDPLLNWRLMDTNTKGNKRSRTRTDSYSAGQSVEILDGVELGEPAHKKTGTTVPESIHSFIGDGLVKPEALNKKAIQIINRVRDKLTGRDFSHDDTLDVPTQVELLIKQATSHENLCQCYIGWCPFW
IC50 reference
Entry rule: numbers only, all in µM.

mol_smiles	measured_on	observed_measurement
COCCNC(=O)c1nc2c(N3CCOCC3)nc(-c3cnc(N)nc3)cn2c1C	mTOR (FRAP1) (Homo sapiens, UniProt P42345)	3.69

Problem: Please supply the value of reported IC50 for the item Cc1cnc2c(N3CCOCC3)nc(-c3ccc(NC(=O)Nc4ccc(C(=O)N5CCN(C)CC5)cc4)cc3)cn12
Solution: 0.443

* * *

target: mTOR (FRAP1) (Homo sapiens, UniProt P42345); construct: purchased ThermoFisher PV4753; experiment: mTOR biochemical assay (LanthaScreen); conditions: internal data
metric: IC50

// solved cases for IC50 follow
compound	IC50
Cc1cnc2c(N3CCCCC3)nc(-c3ccc(NC(=O)Nc4ccc(C(=O)N5CCN(C)CC5)cc4)cc3)cn12	> 10 µM
NC1(c2ccc(-c3nc4ccn5c(=O)[nH]nc5c4cc3-c3ccccc3)cc2)CCC1 [MK-2206, reference compound]	> 10 µM

Problem: Give IC50 only, for CS(=O)(=O)N1CCN(Cc2cc3c(N4CCCCC4)nc(-c4cnc(N)nc4)cn3n2)CC1 , using mTOR (FRAP1) (Homo sapiens, UniProt P42345) data.
Solution: > 10 µM
